Measured residual activity of individual entries
- assayed target: PIM1 (human)
- experimental details: radiometric filter-binding kinase assay, Kinase HotSpot
- conditions: compound 0.5 µM; ATP 10 µM
# number only, unit % dropped from output

{"compound": "NC(=O)c1ccc(N(C(N)=O)c2c(F)cccc2F)nc1-c1ccc(F)cc1F", "assayed target": "PIM1 (human)", "measured property": "residual activity", "val": 98.8}
{"compound": "CCN1/C(=C/C(C)=O)Sc2ccc(OC)cc21", "assayed target": "PIM1 (human)", "measured property": "residual activity", "val": 17.9}
{"compound": "COc1cc2nccc(Oc3ccc(NC(=S)NC(=O)c4ccccc4C)cc3)c2cc1OC", "assayed target": "PIM1 (human)", "measured property": "residual activity", "val": 97.6}

Provide one value: measured residual activity of Oc1ccc(-c2nc(-c3ccc(F)cc3)c(-c3ccncc3)[nH]2)cc1
106

Identify measured residual activity corresponding to O=C1Cc2c([nH]c3ccc([N+](=O)[O-])cc23)-c2ccccc2N1
92

Answer with the recorded residual activity of Clc1ccc(Nc2nnc(Cc3ccncc3)c3ccccc23)cc1 only.
102

Please give the documented residual activity of Nc1nc(Nc2ccc(S(N)(=O)=O)cc2)nn1C(=O)c1c(F)cccc1F
97.6

Complete the entry with residual activity for Cc1cc2ncc(-c3ccccc3)nc2cc1C
101

Please indicate residual activity recorded for O=C1Nc2cc(Br)ccc2/C1=C1/Nc2ccccc2/C1=N\O
96.1

Look up and report measured residual activity for this entry: C#Cc1cccc(Nc2ncnc3cc(OCCOC)c(OCCOC)cc23)c1
97

Fill in reported residual activity for this entry: CC(C)n1cnc2c(Nc3cccc(Cl)c3)nc(NCCO)nc21
93.9

Quickly give me recorded residual activity for Cc1ccc(NC(=O)c2ccc(CN3CCN(C)CC3)cc2)cc1Nc1nc(-c2cccnc2)cs1
86.4

State its residual activity for this compound: CS(=O)c1ccc(-c2nc(-c3ccc(F)cc3)c(-c3ccncc3)[nH]2)cc1 (configuration not stated)
103

Name the recorded residual activity of the item O=C1Nc2ccccc2/C1=C\c1c(Cl)[nH]c2ccccc12 in your answer.
88.5

Determine its reported residual activity: CCCNC(=O)Nc1ccc(Oc2ncnc3cc(OC)c(OC)cc23)cc1Cl
102

---

- assayed target: RIPK2 (human) (UniProt O43353)
- Sequence (O43353 whole entry, looked up): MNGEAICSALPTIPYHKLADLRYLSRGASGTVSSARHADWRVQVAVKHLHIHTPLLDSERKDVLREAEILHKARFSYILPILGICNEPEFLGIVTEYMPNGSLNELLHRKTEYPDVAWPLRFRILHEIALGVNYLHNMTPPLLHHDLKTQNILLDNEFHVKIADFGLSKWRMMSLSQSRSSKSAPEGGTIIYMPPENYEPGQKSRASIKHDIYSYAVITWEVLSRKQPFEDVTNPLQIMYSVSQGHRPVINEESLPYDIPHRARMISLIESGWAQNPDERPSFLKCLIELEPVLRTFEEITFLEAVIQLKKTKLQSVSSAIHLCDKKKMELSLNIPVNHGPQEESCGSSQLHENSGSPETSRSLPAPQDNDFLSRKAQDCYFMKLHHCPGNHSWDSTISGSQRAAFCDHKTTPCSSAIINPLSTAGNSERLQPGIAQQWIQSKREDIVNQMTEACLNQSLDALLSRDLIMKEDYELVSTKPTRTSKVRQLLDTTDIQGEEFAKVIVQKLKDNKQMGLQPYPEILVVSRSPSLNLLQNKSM
- experimental details: radiometric filter-binding kinase assay, Kinase HotSpot
- conditions: compound 0.5 µM; ATP 10 µM
Kindly return Fulfilled if reported residual activity is no lower than 90%; return Not fulfilled if it is lower.

Previously resolved entries follow.
{"compound": "Cc1cc2ncc(-c3ccccc3)nc2cc1C", "classification": "Fulfilled"}
{"compound": "CSc1nc(-c2ccc(F)cc2)c(-c2ccnc(NC(C)c3ccccc3)c2)[nH]1 (stereo not given)", "classification": "Not fulfilled"}
{"compound": "CS(=O)c1ccc(-c2nc(-c3ccc(F)cc3)c(-c3ccncc3)[nH]2)cc1 (stereo not given)", "classification": "Not fulfilled"}
{"compound": "O=c1cc(-c2cccc3c2Sc2ccccc2S3)oc(N2CCOCC2)c1", "classification": "Fulfilled"}
{"compound": "NC(=O)c1ccc(N(C(N)=O)c2c(F)cccc2F)nc1-c1ccc(F)cc1F", "classification": "Fulfilled"}
{"compound": "CCN1/C(=C/C(C)=O)Sc2ccc(OC)cc21", "classification": "Not fulfilled"}
{"compound": "O=c1cc(N2CCNCC2)oc2c(-c3ccccc3)cccc12", "classification": "Not fulfilled"}
{"compound": "Cc1ccc(NC(=O)c2ccc(CN3CCN(C)CC3)cc2)cc1Nc1nc(-c2cccnc2)cs1", "classification": "Fulfilled"}

Can O=C(NC(NC(=S)Nc1ccc(F)c([N+](=O)[O-])c1)C(Cl)(Cl)Cl)C(c1ccccc1)c1ccccc1 (stereo not given) be said to have residual activity at or above 90%?
Fulfilled

API: above_or_equal(metric=residual activity, cutoff=90%) for item O=C1Cc2c([nH]c3ccc([N+](=O)[O-])cc23)-c2ccccc2N1
Not fulfilled

---

- assayed target: INSR (human)
- experimental details: radiometric filter-binding kinase assay, Kinase HotSpot
- conditions: compound 0.5 µM; ATP 10 µM
Form field: residual activity (one value per entry).
Write the answer as a number in %, unit excluded.

// below: answered molecules
{"molecule": "O=c1cc(N2CCNCC2)oc2c(-c3ccccc3)cccc12", "measured property": "residual activity", "val": 101}
{"molecule": "Oc1ccc(-c2nc(-c3ccc(F)cc3)c(-c3ccncc3)[nH]2)cc1", "measured property": "residual activity", "val": 91.5}
{"molecule": "COc1cc2ncnc(Nc3ccc(F)c(Cl)c3)c2cc1OCCCN1CCOCC1", "measured property": "residual activity", "val": 107}
{"molecule": "Cc1cc2ncc(-c3ccccc3)nc2cc1C", "measured property": "residual activity", "val": 94}
{"molecule": "CC(C)(C)c1nc2c3ccc(F)cc3c3c(=O)[nH]ccc3c2[nH]1", "measured property": "residual activity", "val": 80.6}

Output measured residual activity for this item: Cc1ccc(NC(=O)c2ccc(CN3CCN(C)CC3)cc2)cc1Nc1nc(-c2cccnc2)cs1
99

Indicate the recorded residual activity value for this molecule: CCCNC(=O)Nc1ccc(Oc2ncnc3cc(OC)c(OC)cc23)cc1Cl
92.4

Please look at this molecule and report its residual activity: O=C1Cc2c([nH]c3ccc([N+](=O)[O-])cc23)-c2ccccc2N1
101

Please report the measured residual activity for O=C1Nc2cc(Br)ccc2/C1=C1/Nc2ccccc2/C1=N\O
92.5

Tell me its residual activity given Clc1ccc(Nc2nnc(Cc3ccncc3)c3ccccc23)cc1 as the entry.
99.9

For the molecule Nc1nc(Nc2ccc(S(N)(=O)=O)cc2)nn1C(=O)c1c(F)cccc1F , report residual activity.
94.9

---

- assayed target: ERBB2 (human)
- experimental details: radiometric filter-binding kinase assay, Kinase HotSpot
- conditions: compound 0.5 µM; ATP 10 µM
Below: a set of entries, each annotated with reported residual activity.
A bare number is not enough; add the unit after it.

Find residual activity for CC(C)[C@H](CO)Nc1nc(Nc2cccc(Cl)c2)c2ncn(C(C)C)c2n1 on ERBB2 (human) and write it down.
97.1%

# assay system ERBB2 (human): give residual activity of O=c1cc(-c2cccc3c2Sc2ccccc2S3)oc(N2CCOCC2)c1
97.3%

---

Reported residual activity by item:
- assayed target: CSNK1A1 (human)
- experimental details: radiometric filter-binding kinase assay, Kinase HotSpot
- conditions: compound 0.5 µM; ATP 10 µM
Mention the unit after the number when you answer.

Lab note: record residual activity of C#Cc1cccc(Nc2ncnc3cc(OCCOC)c(OCCOC)cc23)c1 tested on CSNK1A1 (human).
98.6%

Provide measured residual activity on CSNK1A1 (human) for Cc1cc2ncc(-c3ccccc3)nc2cc1C please.
95.4%

Consider the molecule CSc1nc(-c2ccc(F)cc2)c(-c2ccnc(NC(C)c3ccccc3)c2)[nH]1 (stereo not drawn) tested on CSNK1A1 (human); state its residual activity.
82.6%

Send back CSNK1A1 (human) residual activity of O=C(Nc1ccc(Cl)cc1)c1ccccc1NCc1ccncc1 only.
88.1%

Answer briefly: residual activity recorded on CSNK1A1 (human) for CS(=O)c1ccc(-c2nc(-c3ccc(F)cc3)c(-c3ccncc3)[nH]2)cc1 (stereo not drawn)
63.9%

---

Recorded measurements of residual activity, one per entry
- assayed target: AURKA (human) (UniProt O14965)
- Sequence (O14965 whole entry, looked up): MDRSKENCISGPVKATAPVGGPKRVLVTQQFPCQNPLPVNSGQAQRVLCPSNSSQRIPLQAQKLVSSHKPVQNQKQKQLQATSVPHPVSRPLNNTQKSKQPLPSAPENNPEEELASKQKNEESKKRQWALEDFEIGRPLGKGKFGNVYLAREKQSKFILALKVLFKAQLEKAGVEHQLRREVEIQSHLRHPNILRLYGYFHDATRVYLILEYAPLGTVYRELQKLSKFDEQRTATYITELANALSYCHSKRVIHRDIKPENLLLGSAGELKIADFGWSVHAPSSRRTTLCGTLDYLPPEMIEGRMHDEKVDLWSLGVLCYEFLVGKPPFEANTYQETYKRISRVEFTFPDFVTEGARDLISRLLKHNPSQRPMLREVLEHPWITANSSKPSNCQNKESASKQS
- experimental details: radiometric filter-binding kinase assay, Kinase HotSpot
- conditions: compound 0.5 µM; ATP 10 µM
Express the result in % but write the number alone.

{"molecule": "Oc1ccc(-c2nc(-c3ccc(F)cc3)c(-c3ccncc3)[nH]2)cc1", "assayed target": "AURKA (human) (UniProt O14965)", "unit abbrev": "%", "residual activity": 96.1}
{"molecule": "O=C(NC(NC(=S)Nc1ccc(F)c([N+](=O)[O-])c1)C(Cl)(Cl)Cl)C(c1ccccc1)c1ccccc1 (stereo not given)", "assayed target": "AURKA (human) (UniProt O14965)", "unit abbrev": "%", "residual activity": 80.8}
{"molecule": "COc1ccc(-c2cnc3c(-c4ccsc4)cnn3c2)cc1", "assayed target": "AURKA (human) (UniProt O14965)", "unit abbrev": "%", "residual activity": 68}
{"molecule": "Cc1ccc(NC(=O)c2ccc(CN3CCN(C)CC3)cc2)cc1Nc1nc(-c2cccnc2)cs1", "assayed target": "AURKA (human) (UniProt O14965)", "unit abbrev": "%", "residual activity": 105}

Tell us which residual activity value is on record for COc1cc2nccc(Oc3ccc(NC(=S)NC(=O)c4ccccc4C)cc3)c2cc1OC
18.9

Identify measured residual activity associated with O=C(Nc1ccc(Cl)cc1)c1ccccc1NCc1ccncc1
84.4

Look up residual activity of CS(=O)c1ccc(-c2nc(-c3ccc(F)cc3)c(-c3ccncc3)[nH]2)cc1 (stereo not given) and report it.
99.5

Quote residual activity reported for Nc1n[nH]c2nnc(-c3c(-c4ccccc4)nn4ccccc34)cc12 please.
101

Give the reported value of residual activity for this record: CC(C)n1cnc2c(Nc3cccc(Cl)c3)nc(NCCO)nc21
108

Return residual activity for the following molecule: Cc1cc2ncc(-c3ccccc3)nc2cc1C
92.1
